// provenance: patent US20200054643A1

target: ALK5/TGFBR1 (Homo sapiens); test: BMP Type 1 receptor assay, ALK5/TGFBR1; type: biochemical
Sequence (P36897 34-503): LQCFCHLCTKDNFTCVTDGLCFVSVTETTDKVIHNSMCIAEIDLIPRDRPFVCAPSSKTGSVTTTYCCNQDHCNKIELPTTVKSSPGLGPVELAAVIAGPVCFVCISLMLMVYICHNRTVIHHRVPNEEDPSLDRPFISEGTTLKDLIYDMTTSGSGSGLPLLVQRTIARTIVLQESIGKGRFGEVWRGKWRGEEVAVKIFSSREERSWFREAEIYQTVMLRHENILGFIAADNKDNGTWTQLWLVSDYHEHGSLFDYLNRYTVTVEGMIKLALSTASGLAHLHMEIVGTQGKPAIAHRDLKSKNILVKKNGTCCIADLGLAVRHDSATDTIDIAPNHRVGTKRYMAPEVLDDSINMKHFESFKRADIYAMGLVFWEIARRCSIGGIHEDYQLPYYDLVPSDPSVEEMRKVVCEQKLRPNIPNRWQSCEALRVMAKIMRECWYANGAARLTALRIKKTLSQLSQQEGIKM
# IC50 values compiled below

[
  {
    "compound": "c1ccc(-c2cnc3cc(-c4ccc(OCCN5CCOCC5)cc4)ccn23)cc1 [Entry 30]",
    "IC50": "> 100000 nM"
  },
  {
    "compound": "CC(C)Oc1ccc(-c2ccn3c(-c4ccnc(F)c4)cnc3c2)cc1 [Entry 26]",
    "IC50": "> 100000 nM"
  },
  {
    "compound": "CC(C)Oc1ccc(-c2ccn3c(-c4cn[nH]c4)cnc3c2)cc1 [Entry 42]",
    "IC50": "> 100000 nM"
  }
]

---

molecular target: ALK2/ACVR1 (Homo sapiens, UniProt Q04771); test: BMP Type 1 receptor assay, ALK2/ACVR1; type: biochemical
Sequence (Q04771 21-509): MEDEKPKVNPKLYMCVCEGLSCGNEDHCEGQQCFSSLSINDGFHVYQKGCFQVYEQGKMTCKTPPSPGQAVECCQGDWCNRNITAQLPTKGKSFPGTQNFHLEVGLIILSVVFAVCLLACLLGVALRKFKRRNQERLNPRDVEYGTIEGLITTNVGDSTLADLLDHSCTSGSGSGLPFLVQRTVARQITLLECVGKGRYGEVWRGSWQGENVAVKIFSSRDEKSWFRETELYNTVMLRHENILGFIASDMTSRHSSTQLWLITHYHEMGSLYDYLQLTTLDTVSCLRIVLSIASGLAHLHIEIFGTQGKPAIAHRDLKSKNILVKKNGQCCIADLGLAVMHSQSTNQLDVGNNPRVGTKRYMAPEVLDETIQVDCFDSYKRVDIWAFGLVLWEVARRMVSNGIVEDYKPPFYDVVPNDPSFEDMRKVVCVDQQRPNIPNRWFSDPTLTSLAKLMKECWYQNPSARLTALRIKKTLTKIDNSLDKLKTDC

[
  {
    "molecule": "Cc1cc(-c2cnc3cc(-c4ccc(N5CCN(C)CC5)cc4)ccn23)ccn1 [Entry 67]",
    "IC50, nM": 20
  },
  {
    "molecule": "c1ccc2c(-c3cnc4cc(-c5ccc6c(c5)OCCO6)ccn34)ccnc2c1 [Entry 5]",
    "IC50, nM": 270
  },
  {
    "molecule": "CC(C)Oc1ccc(-c2ccn3c(-c4ccnc(F)c4)cnc3c2)cc1 [Entry 26]",
    "IC50, nM": 265
  },
  {
    "molecule": "CN1CCN(c2ccc(-c3ccn4c(-c5ccncc5)cnc4c3)cc2)CC1 [Entry 66]",
    "IC50, nM": 46
  }
]
